- measured.on: CaSla1-D1-D2
- assay.summary: SPOT peptide array binding signal intensity (averaged, normalized) (arbitrary units (background-subtracted, floor 0; scale differs between SH3 domains)); higher = stronger binding of the SH3 domain to the peptide
readout.kind: SPOT peptide array binding signal intensity
Give bare numbers.

Give SPOT peptide array binding signal intensity for each of the items listed below.
1. KRNRLKILLPFLEQS
2. VATSTSPKLPPRGKQ
3. IKKRNKIRLPSGSPE

[5, 32, 30]
